Test system: WI-38
Assay: Antiproliferative activity against human WI38 cells after 72 hrs by MTT test
Assay type: functional, cell-based
Conditions: WI-38, 72 h
// reported IC50 per item
Form entry: value (nM) — number only.

Example results:
{"columns": ["STRUCTURE_STRING", "RESULT_TYPE", "RECORDED_RESULT"],
 "data": [
  ["COc1cccc(/C=N/NC(=S)Nc2ccccc2)c1O", "IC50", 1400],
  ["CCN(CC)c1ccc(/C=N/NC(N)=S)c(O)c1", "IC50", 200],
  ["CCN(CC)c1ccc(/C=N/NC(=S)Nc2ccccc2)c(O)c1", "IC50", 300]
]}

From here, focus on the item given below.
Data request: GET /values?readout=IC50&item= Oc1ccccc1/C=N/NC(=S)Nc1ccccc1
Data returned: 1300
